Reference source: the RNAGym collection of RNA variant scans (doi:10.7554/elife.90254)

Below: a set of entries, each annotated with reported self-cleavage.
B1: LINE1-full (parent)
chain: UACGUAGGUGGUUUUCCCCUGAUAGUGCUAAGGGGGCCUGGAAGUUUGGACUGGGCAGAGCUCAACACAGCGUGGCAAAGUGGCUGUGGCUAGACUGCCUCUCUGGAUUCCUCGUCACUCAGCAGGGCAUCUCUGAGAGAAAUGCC

Variants of: B1
experiment_summary: self-cleavage, relative activity (ratio to wild type); higher = more cleavage; in vitro, sequencing; the parent is a self-cleaving ribozyme
# respond with the number and nothing more

Past entries and their recorded results:
Prompt line: Give reported self-cleavage value for A31U A78U
Response line: 1.57

Prompt line: Give reported self-cleavage value for C61U G114U
Response line: 0.01

Prompt line: Give reported self-cleavage value for A107G U134A
Response line: 1.45

Further cases:
Prompt line: Give reported self-cleavage value for U85A A140G
Response line: 0.08
